EXPERIMENT: Thermal analysis (TG/DTA and TGA 7)
Assay type: physicochemical
RECORDED_CONDITIONS: average from both instruments; air, heating rate 5 °C/min
The label MET is reserved for Td (decomposition onset) strictly under 200 °C; NOT MET covers values equal to or above it.

Completed entries (count: 5):
INSERT INTO results (compound, qualitative_label) VALUES
  ('NCCCCC(O)(P(=O)(O)O)P(=O)(O)O', 'NOT MET'),
  ('NCCCC(O)(P(=O)(O)O)P(=O)(O)O [Compound 2, reference compound]', 'NOT MET'),
  ('NCCCCCC(O)(P(=O)(O)O)P(=O)(O)O [Compound 4, reference compound]', 'NOT MET'),
  ('NCCCCCCCCCCCC(O)(P(=O)(O)O)P(=O)(O)O', 'MET'),
  ('NCCCCCCCCCC(O)(P(=O)(O)O)P(=O)(O)O', 'MET');

Prompt: Given the entry `NCCCCCCCCCCCCCCCC(O)(P(=O)(O)O)P(=O)(O)O` , would its reported Td (decomposition onset) be below 200 °C?
Completion: MET

Prompt: Now try `NCCC(O)(P(=O)(O)O)P(=O)(O)O` .
Completion: MET

Prompt: Now try `NCCCCCCCCC(O)(P(=O)(O)O)P(=O)(O)O` .
Completion: MET

Origin of values: paper PMC6268373
